Would you kindly list IC50 for each of these molecules?
# assaySystem: ERK5 (Homo sapiens)
# Construct: made in house
# Sequence (Q13164 whole entry): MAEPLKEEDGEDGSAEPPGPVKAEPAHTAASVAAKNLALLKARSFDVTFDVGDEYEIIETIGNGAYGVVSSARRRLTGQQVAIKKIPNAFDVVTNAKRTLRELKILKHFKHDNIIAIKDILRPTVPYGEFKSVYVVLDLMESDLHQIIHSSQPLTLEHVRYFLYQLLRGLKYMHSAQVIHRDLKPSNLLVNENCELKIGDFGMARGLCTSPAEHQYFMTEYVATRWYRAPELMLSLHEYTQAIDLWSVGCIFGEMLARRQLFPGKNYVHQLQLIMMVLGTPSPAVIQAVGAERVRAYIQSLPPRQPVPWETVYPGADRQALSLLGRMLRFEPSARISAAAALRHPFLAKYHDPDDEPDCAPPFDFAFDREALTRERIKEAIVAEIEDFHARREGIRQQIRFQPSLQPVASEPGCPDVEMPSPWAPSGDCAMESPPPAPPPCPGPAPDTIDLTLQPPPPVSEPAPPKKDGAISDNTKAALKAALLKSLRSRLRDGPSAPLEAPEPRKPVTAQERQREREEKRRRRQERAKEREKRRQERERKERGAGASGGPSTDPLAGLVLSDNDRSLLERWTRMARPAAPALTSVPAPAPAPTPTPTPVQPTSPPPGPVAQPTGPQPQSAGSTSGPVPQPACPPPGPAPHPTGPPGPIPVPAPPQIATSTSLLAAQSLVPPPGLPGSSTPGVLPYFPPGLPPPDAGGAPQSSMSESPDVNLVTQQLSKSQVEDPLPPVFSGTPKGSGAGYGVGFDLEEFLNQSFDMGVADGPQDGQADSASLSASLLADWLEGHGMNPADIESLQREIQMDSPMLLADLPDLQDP
# measurementDescription: ERK5 IMAP assay (fluorescence polarisation)
# Assay type: biochemical
# reportedConditions: average (e.g. geometric mean) where more than one data point; read-out: ERK5 IC50
// return numeric value only (unit: nM, not printed)

Ask: Quick one: IC50 of `CCN(CC)CCNc1ncc(NC(=O)c2cc(C(=O)c3c(Cl)ccc(Cl)c3F)c[nH]2)cn1` ?
Reply: 19.3

Ask: What measured IC50 goes with `COc1ccc(Cl)c(C(=O)c2c[nH]c(C(=O)Nc3ccc(N4CCNCC4)nc3)c2)c1F` ?
Reply: 15.7

Ask: What value of measured IC50 is listed for `CC(=O)N1CCC(NC(=O)c2cc(C(=O)c3c(Cl)ccc(Cl)c3F)c[nH]2)CC1` ?
Reply: 87.8

Ask: Which IC50 reading was recorded for the molecule `Cn1cc(NC(=O)c2cc(C(=O)c3c(Cl)ccc(O)c3F)c[nH]2)cn1` ?
Reply: 736

Ask: Which IC50 value belongs to `O=C(Nc1ccncc1)c1cc(C(=O)c2cccc(Cl)c2Cl)c[nH]1` ?
Reply: 5470

Ask: IC50 lookup needed for `Cc1ccc(F)c(C(=O)c2c[nH]c(C(=O)NC3CCN(C)CC3)c2)c1Cl` , thanks.
Reply: 472

Ask: Please give the measured IC50 for this molecule: `O=C(Nc1cccnc1)c1cc(C(=O)c2c(Cl)ccc(O)c2F)c[nH]1`
Reply: 1190

Ask: Look up IC50: `O=C(Nc1cnn(CCO)c1)c1cc(C(=O)c2c(Cl)ccc(Cl)c2F)c[nH]1`
Reply: 61.2

Ask: Which IC50 is reported for this molecule? `COc1ccc(Cl)c(C(=O)c2c[nH]c(C(=O)Nc3cnc(CC4CCN(C)CC4)nc3)c2)c1F`
Reply: 18.1

Ask: Consider the molecule `O=C(Nc1cncnc1)c1cc(C(=O)c2c(Cl)ccc(Br)c2F)c[nH]1` and give its measured IC50.
Reply: 606

Ask: Need IC50 of `O=C(Nc1cccnc1)c1cc(C(=O)c2c(F)ccc(Cl)c2F)c[nH]1` , thanks.
Reply: 291

Ask: GET /values?readout=IC50&item= `COc1cc(NC(=O)c2cc(C(=O)c3c(F)cccc3Cl)c[nH]2)ccn1`
Reply: 1830
